pIC50: −log10 of the molar value.
From various publications: pIC50 for Tyrosine-protein kinase ABL1 (Homo sapiens, UniProt P00519).

>  <compound>
O=c1c(-c2ccc(O)cc2)coc2cc(O)cc(O)c12

>  <qualifierSymbol>
=

>  <pIC50>
4.41

$$$$
>  <compound>
C=C(C)Cn1c(O)c(O)sc1=NN=c1scc(O)n1C

>  <qualifierSymbol>
<

>  <pIC50>
4.00

$$$$
>  <compound>
Cc1c2ccc(N(C)c3ccnc(Nc4ccc(S(=O)(=O)NC(=N)N)cc4)n3)cc2nn1C

>  <qualifierSymbol>
=

>  <pIC50>
6.44

$$$$
>  <compound>
Cc1ccnc(NS(=O)(=O)c2ccc(Nc3nccc(Nc4ccc5c(C)n(C)nc5c4)n3)cc2)n1

>  <qualifierSymbol>
=

>  <pIC50>
6.55

$$$$
>  <compound>
Cc1cc(NS(=O)(=O)c2ccc(Nc3nccc(Nc4ccc5c(C)n(C)nc5c4)n3)cc2)no1

>  <qualifierSymbol>
=

>  <pIC50>
5.66

$$$$
>  <compound>
C=C(C)Cn1c(O)c(CN(C)C)sc1=NN=c1scc(O)n1C

>  <qualifierSymbol>
<

>  <pIC50>
4.00

$$$$
>  <compound>
Cc1c2ccc(N(C)c3ccnc(Nc4ccc(S(=O)(=O)Nc5ncccn5)cc4)n3)cc2nn1C

>  <qualifierSymbol>
=

>  <pIC50>
6.92

$$$$
>  <compound>
N[C@@H](CCCCN=CC1C(=O)Nc2ccccc21)C(=O)O (some centres undefined)

>  <qualifierSymbol>
<

>  <pIC50>
5.00

$$$$
>  <compound>
Cc1cc(C)nc(NS(=O)(=O)c2ccc(Nc3nccc(Nc4ccc5c(C)n(C)nc5c4)n3)cc2)n1

>  <qualifierSymbol>
=

>  <pIC50>
6.44

$$$$
